These measurements were taken from patent US20240117054A1.

# SUBJECT OF TEST: T1, human FLT3 (hFLT3) expressed on cells (human, UniProt P36888 27-993)
# T1 construct: whole, on cells; One molecule for all cell lines that carry human FLT3; also called RMA-hFLT3; FLT3 on REH cells
# T1 sequence (looked up): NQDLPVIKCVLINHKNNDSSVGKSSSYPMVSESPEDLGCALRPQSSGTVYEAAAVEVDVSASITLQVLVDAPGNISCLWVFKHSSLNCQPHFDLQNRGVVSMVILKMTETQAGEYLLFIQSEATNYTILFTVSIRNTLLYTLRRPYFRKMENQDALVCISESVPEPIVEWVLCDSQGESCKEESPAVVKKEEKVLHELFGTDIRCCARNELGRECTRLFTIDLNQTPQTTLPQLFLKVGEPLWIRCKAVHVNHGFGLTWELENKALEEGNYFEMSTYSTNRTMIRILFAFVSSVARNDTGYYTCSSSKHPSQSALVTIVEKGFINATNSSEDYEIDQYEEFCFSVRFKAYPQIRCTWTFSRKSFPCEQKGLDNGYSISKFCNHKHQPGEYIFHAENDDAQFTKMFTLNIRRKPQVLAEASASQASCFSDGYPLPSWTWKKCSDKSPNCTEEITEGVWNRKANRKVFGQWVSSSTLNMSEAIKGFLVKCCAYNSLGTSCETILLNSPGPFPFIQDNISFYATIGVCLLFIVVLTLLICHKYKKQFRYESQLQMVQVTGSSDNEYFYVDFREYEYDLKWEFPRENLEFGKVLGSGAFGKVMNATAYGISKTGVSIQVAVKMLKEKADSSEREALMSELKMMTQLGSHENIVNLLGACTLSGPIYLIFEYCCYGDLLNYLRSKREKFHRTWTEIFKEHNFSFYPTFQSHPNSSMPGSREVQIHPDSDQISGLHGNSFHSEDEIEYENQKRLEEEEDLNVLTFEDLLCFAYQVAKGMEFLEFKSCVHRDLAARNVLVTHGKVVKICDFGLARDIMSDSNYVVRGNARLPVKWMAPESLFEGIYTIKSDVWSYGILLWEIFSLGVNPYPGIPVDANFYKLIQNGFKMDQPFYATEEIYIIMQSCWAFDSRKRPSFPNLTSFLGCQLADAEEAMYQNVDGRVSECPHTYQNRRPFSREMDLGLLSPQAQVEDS
# ASSAY METHOD TEXT: flow cytometry, purified mAb on SEM cells
METRIC NAME: Max MFI (MFI)
Respond with the bare value in MFI.

See these solved cases before continuing.
15A11.C8 (antibody, V domains shown, Purified murine mAb from a hybridoma subclone) VH: EVQLQESGGGLVKTGGSRKLSCAASGFTFSDYGMHWVRHTPEKGLEWVVYISSGGNTIFYTDTVKGRFTISRDNAKNTLFLQMTSLRSEDTAVYFCVRQGYYYAMDYWGQGASVTVSS VL: DIQMTQTTSSLSASLGDRVTIRCRASQDITNYLNWYQQKPDGAVKLLISYTSILQSGVPSRFSGSGSGTDYSLTISNLEQGDVATYFCQQGSSLPWTFGGGTKLEIK = 3860
4H2.E3 (antibody, V domains shown, Purified murine mAb from a hybridoma subclone) VH: EVQLQESGPELVKPGASVKMSCKASGYTFTSYLMHWMKQKPGQGLEWIGYINPYSDGIKYNEKFRDKATLTSDKSSNTAYMELSSLTSEDSAVYYCAHSSGYVGYAMDYWGQGTSVTVSS VL: GIVMTQTTPSVPVTPGESVSISCRSSKSLLHSNGNTYLYWFLQRPGQSPQLLIYRMSNLASGVPDRFSGSGSGTTFTLRISRVEAEDVGVYYCMQHLEYPFTFGSGTKLEIK = 1510
11F4.B9 (antibody, V domains shown, Purified murine mAb from a hybridoma subclone) VH: EVQLQESGPELVKPGASVKISCKASGYSFTGYYIHWVKQGPEKSLEWIGEIIPSTGSTIYNQKFKAKATLTVDKSSSTAYLQLKSLTSEDSAVYYCERWGDYYGRDYWGQGTSVTVSS VL: DIVLTQSPASLAVSLGQRATISCRASESVDIYGNSFMHWYQQKPGQPPKLLIYRASNLESGIPARFSGSGSRTDFTLTINPVEADDVATYYCQQSNEDPRTFGGGTKLEIK = 1140
14A5.E8 (antibody, V domains shown, Purified murine mAb from a hybridoma subclone) VH: EVQLQESGAELVQPGASVRLSCKASGYTFTSYWINWVKQRPGQGLEWIGNIYPGSSIINYNENFKNRATLTVDTSSSTAYMQLSSLTSDDSAVYYCARRVVYLYFDYWGQGTTLTVSS VL: QIVLTQSPAIMSASPGEKVTMTCSASSSVSYMHWYQQKSGTSPKRWIYDTSKLASGVPARFSGSGSGTSYSLTISSMEAEDAATYYCQQWTSKSPTFGGGTKLEIK = 1960

// next item, Max MFI requested
Item 1A2.A3 (antibody, V domains shown, Purified murine mAb from a hybridoma subclone) VH: EVQLQESGPELVKPGASVKISCKASGYSFTGYYIHWVKQSPEESLEWIGEIYPNTGITTYNQKFTAKATLTVDKSSNTAYMQLKSLTSEDSAVYYCTRWGDYYGRDYWGQGTSVTVSS VL: DIVLTQSPASLAVSLGQRATISCRASETVDTHGNSFMHWYQQKPGQPPKLLIYRASNLESGIPARFSGSGSRTDFTLTINPVEADDVATYYCQQSNEDPRTFGGGTKLEIK has what recorded Max MFI?
1360
